System tested: recombinant human OX40 (Acro Biosystems, cat. no. OXO-H5224) (human) (UniProt P43489)
Sequence (P43489 29-216 limits assumed): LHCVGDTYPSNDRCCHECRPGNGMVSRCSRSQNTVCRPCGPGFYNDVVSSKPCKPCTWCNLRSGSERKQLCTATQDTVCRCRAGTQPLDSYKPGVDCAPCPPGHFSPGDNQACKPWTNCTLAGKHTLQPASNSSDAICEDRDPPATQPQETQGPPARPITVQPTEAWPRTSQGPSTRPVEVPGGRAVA
Protocol summary: BLI cross-block; competitor (immobilized 1st Ab): IgG1-CD134-IBI101
Quantity: corrected association response (nm)
Give just the numeric value; nm need not be written.

{"columns": ["Binder", "Readout unit", "Quantitative result"],
 "data": [
  ["IgG1-CD134-GBR830 (antibody, INN chains, looked up, V domains shown, IgG1) VH: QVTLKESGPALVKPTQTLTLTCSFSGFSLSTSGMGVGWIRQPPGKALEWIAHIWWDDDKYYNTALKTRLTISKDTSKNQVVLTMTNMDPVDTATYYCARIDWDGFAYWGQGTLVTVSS VL: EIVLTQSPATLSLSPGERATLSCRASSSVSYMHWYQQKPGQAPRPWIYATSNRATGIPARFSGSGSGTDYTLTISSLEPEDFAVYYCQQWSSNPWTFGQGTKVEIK", "nm", 0.02]
]}

Query: Report corrected association response for IgG1-CD134-ABBV368 (antibody, INN chains, looked up, V domains shown, IgG1) VH: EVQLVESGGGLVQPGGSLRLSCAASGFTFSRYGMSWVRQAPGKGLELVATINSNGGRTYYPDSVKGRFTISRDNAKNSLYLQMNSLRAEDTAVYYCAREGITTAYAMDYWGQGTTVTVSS VL: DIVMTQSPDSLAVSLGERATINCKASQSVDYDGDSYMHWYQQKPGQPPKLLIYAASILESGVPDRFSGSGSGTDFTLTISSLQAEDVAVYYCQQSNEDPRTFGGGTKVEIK please.
Response: 0.01

Query: Follow-up item: IgG1-CD134-MEDI0562 (antibody, INN chains, looked up, V domains shown, IgG1) VH: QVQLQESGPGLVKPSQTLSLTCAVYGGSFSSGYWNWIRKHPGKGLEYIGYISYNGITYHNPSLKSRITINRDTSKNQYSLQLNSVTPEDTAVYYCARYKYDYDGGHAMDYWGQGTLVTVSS VL: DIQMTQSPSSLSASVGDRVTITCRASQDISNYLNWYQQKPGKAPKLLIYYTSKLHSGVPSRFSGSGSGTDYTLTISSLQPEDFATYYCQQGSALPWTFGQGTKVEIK
Response: 0.28

Query: Follow-up item: IgG1-CD134-RG7888 (antibody, INN chains, looked up, V domains shown, IgG1) VH: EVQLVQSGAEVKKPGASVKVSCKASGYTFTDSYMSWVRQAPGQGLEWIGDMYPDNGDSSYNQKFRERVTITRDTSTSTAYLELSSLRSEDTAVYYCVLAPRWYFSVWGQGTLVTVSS VL: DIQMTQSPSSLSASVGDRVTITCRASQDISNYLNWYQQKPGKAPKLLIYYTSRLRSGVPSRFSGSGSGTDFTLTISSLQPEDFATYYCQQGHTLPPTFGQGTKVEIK
Response: 0.23
